# STUDY SYSTEM: hNav1.7 and the β1 subunit (Homo sapiens)
# Construct: expressed in transfected cells
# Sequence (Q15858 whole entry): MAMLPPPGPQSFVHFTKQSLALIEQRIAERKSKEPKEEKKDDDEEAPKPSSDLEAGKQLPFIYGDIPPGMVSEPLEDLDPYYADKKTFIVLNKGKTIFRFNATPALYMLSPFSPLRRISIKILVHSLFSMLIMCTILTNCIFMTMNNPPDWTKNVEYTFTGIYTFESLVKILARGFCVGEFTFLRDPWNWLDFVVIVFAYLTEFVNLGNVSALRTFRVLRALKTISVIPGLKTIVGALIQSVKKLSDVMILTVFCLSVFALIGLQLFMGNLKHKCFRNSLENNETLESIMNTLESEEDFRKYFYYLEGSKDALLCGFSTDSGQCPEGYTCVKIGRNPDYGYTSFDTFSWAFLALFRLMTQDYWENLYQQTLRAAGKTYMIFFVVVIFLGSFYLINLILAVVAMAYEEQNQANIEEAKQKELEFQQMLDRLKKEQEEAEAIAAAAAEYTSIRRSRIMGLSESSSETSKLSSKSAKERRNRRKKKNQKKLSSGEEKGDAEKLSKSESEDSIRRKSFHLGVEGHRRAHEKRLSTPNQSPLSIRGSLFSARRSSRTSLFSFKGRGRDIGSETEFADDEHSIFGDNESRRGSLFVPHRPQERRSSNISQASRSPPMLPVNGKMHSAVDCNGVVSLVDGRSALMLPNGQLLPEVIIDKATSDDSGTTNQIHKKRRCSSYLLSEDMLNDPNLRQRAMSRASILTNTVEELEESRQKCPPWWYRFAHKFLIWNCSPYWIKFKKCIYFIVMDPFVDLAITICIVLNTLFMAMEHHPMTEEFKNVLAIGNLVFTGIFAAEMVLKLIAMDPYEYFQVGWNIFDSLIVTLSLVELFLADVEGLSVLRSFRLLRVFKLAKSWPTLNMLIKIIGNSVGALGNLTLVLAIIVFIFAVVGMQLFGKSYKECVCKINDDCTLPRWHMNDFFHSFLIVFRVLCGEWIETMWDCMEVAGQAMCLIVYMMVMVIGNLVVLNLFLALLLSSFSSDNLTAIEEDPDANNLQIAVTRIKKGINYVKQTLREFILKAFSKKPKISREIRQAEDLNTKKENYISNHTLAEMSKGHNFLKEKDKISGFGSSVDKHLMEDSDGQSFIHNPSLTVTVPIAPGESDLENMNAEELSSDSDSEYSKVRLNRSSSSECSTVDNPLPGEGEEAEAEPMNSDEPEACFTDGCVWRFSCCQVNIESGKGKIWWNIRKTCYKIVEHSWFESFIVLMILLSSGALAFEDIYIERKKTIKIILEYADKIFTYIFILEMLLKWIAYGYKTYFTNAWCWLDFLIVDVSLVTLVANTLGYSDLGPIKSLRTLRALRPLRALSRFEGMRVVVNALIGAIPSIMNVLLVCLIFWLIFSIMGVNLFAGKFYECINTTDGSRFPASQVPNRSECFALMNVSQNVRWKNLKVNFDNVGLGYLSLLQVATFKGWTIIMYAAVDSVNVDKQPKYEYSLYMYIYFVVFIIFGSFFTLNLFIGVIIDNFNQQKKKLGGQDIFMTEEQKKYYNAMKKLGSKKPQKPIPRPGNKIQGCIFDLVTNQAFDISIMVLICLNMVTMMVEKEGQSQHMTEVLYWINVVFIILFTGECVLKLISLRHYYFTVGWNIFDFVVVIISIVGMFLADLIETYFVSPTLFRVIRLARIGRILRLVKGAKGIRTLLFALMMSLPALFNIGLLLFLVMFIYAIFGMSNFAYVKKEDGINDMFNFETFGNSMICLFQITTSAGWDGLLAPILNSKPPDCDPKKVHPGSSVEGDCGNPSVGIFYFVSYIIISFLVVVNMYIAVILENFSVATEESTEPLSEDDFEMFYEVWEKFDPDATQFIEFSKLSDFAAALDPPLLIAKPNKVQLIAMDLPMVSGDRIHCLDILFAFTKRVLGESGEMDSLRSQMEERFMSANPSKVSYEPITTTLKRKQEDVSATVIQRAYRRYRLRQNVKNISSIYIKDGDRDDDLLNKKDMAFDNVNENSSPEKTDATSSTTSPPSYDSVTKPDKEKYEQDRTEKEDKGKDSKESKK
# Sequence (Q07699 19-218 partner): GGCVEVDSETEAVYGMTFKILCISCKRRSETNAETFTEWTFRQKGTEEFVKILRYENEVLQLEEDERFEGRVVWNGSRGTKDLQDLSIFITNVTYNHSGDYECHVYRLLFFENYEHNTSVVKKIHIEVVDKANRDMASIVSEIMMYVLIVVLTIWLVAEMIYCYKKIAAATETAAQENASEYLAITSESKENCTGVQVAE
# ASSAY: Tritiated compound competitive binding to membranes from cells heterologously expressing hNav1.7 and the β1 subunit (LBA)
# SETTINGS: competition with 100 pM [3H]compound, 18 h, room temperature; IC50 by 4 parameter logistic model
# Method: Example 235 Tritiated Compound Binding to Membranes Isolated from Cells that Heterologously Express hNav1.7 and the β1 Subunit Preparation of membranes containing recombinantly expressed sodium channels: Frozen recombinant cell pellets were thawed on ice and diluted to 4 times the cell pellet weight with ice cold 50 mM Tris HCl, pH 7.4 buffer. […] Protein concentrations were determined by Bradford Assay and the membranes were stored at −80° C. […]
Threshold rule: Nav1.7 (LBA) greater than or equal to 0.2 µM is Fulfilled; below that, Not fulfilled.

- COMPOUND: "O=S(=O)(Nc1ncns1)c1ccc2c(c1)OCC[C@@H]2N1CC[C@H](C(F)F)C[C@@H]1c1ccc(F)cc1"
  ASSIGNED CLASS: "Not fulfilled"
- COMPOUND: "O=S(=O)(Nc1ncns1)c1cc(F)c(CN2CC[C@@H](OC(F)(F)F)C[C@H]2c2ccccc2)cc1F (single isomer, unassigned)"
  ASSIGNED CLASS: "Not fulfilled"
- COMPOUND: "O=S(=O)(Nc1ncns1)c1ccc2c(c1)OCC[C@@H]2N1CC[C@@H](C(F)(F)F)C[C@H]1c1ccc(F)c(F)c1"
  ASSIGNED CLASS: "Not fulfilled"
- COMPOUND: "CC(C)[C@@H]1CCN([C@@H]2CCOc3cc(S(=O)(=O)Nc4ncns4)ccc32)[C@H](c2ccccc2)C1 (single isomer, unassigned)"
  ASSIGNED CLASS: "Fulfilled"
- COMPOUND: "CC(C)[C@H]1CCN([C@H]2CCOc3cc(S(=O)(=O)Nc4ncns4)ccc32)[C@@H](c2ccccc2)C1 (single isomer, unassigned)"
  ASSIGNED CLASS: "Not fulfilled"
- COMPOUND: "O=S(=O)(Nc1ncns1)c1ccc2c(c1)OCC[C@@H]2N1CCCC[C@H]1c1cccnc1 (single isomer, unassigned)"
  ASSIGNED CLASS: "Not fulfilled"
- COMPOUND: "O=S(=O)(Nc1ncns1)c1ccc2c(c1)OCC[C@@H]2N1CCC(C(F)F)CC1"
  ASSIGNED CLASS: "Fulfilled"
- COMPOUND: "CC1(C)CCN(Cc2cc(F)c(S(=O)(=O)Nc3ncns3)cc2F)[C@@H](c2ccccc2)C1 (single isomer, unassigned)"
  ASSIGNED CLASS: "Fulfilled"
- COMPOUND: "CN1CCN([C@H]2CCOc3cc(S(=O)(=O)Nc4ncns4)ccc32)[C@H](c2ccc(F)cc2)C1"
  ASSIGNED CLASS: "Fulfilled"
- COMPOUND: "O=S(=O)(Nc1ncns1)c1ccc2c(c1)OCC[C@H]2N1CC[C@H](CF)C[C@@H]1c1ccc(F)cc1"
  ASSIGNED CLASS: "Not fulfilled"
- COMPOUND: "O=S(=O)(Nc1ncns1)c1ccc2c(c1)OCC[C@@H]2N1CCN(CC(F)F)C[C@H]1c1ccc(F)cc1"
  ASSIGNED CLASS: "Not fulfilled"
- COMPOUND: "CC(C)(O)[C@H]1CCN([C@@H]2CCOc3cc(S(=O)(=O)Nc4ncns4)ccc32)[C@@H](c2ccc(F)cc2)C1 (single isomer, unassigned)"
  ASSIGNED CLASS: "Not fulfilled"
- COMPOUND: "CC(C)(O)[C@@H]1CCN([C@H]2CCOc3cc(S(=O)(=O)Nc4ncns4)ccc32)[C@H](c2ccc(F)cc2)C1 (single isomer, unassigned)"
  ASSIGNED CLASS: "Not fulfilled"
- COMPOUND: "CS(=O)(=O)N1CCN([C@H]2CCOc3cc(S(=O)(=O)Nc4ncns4)ccc32)[C@H](c2ccc(F)cc2)C1"
  ASSIGNED CLASS: "Not fulfilled"
- COMPOUND: "CC(C)[C@@H]1CCN([C@H]2CCOc3cc(S(=O)(=O)Nc4ncns4)ccc32)[C@H](c2ccccc2)C1 (single isomer, unassigned)"
  ASSIGNED CLASS: "Not fulfilled"
- COMPOUND: "C[C@H]1CC[C@@H](c2ccccc2)N(Cc2cc(F)c(S(=O)(=O)Nc3ncns3)cc2F)C1 (single isomer, unassigned)"
  ASSIGNED CLASS: "Fulfilled"
- COMPOUND: "C[C@@H]1CCCN(Cc2cc(F)c(S(=O)(=O)Nc3ncns3)cc2F)[C@@H]1c1ccccc1 (single isomer, unassigned)"
  ASSIGNED CLASS: "Fulfilled"
- COMPOUND: "O=S(=O)(Nc1ncns1)c1ccc(CN2CCCCC2c2ccccc2)c(Cl)c1 (stereo not shown)"
  ASSIGNED CLASS: "Fulfilled"
- COMPOUND: "O=S(=O)(Nc1ncns1)c1ccc2c(c1)OCC[C@@H]2N1CC[C@@H](OC(F)(F)F)C[C@H]1c1ccc(F)cc1"
  ASSIGNED CLASS: "Fulfilled"
- COMPOUND: "O=S(=O)(Nc1ncns1)c1ccc2c(c1)OCC[C@@H]2N1CC[C@H](C(F)(F)F)C[C@@H]1c1ccn[nH]1 (single isomer, unassigned)"
  ASSIGNED CLASS: "Not fulfilled"
- COMPOUND: "O=S(=O)(Nc1nccs1)c1cc2c(cc1F)[C@H](N1CC[C@@H](C(F)(F)F)C[C@H]1c1ccc(F)cc1)CCO2 [Example 214]"
  ASSIGNED CLASS: "Not fulfilled"
- COMPOUND: "O=S(=O)(Nc1ncns1)c1ccc2c(c1)OCC[C@H]2N1CC[C@H](C(F)F)C[C@@H]1c1ccc(F)cc1"
  ASSIGNED CLASS: "Not fulfilled"
- COMPOUND: "O=S(=O)(Nc1ncns1)c1ccc2c(c1)OCC[C@@H]2N1CCCC[C@H]1C1CCCCC1 (single isomer, unassigned)"
  ASSIGNED CLASS: "Fulfilled"
- COMPOUND: "CCN1CCN([C@H]2CCOc3cc(S(=O)(=O)Nc4ncns4)ccc32)[C@H](c2ccc(F)cc2)C1"
  ASSIGNED CLASS: "Not fulfilled"
